Taken from PubChem BioAssay (NCATS).

- Measurement notes: qHTS drug screen for cell cycle checkpoint inhibitors in PARPi-resistant BRCA-mutant ovarian cancer cell lines. (AID 1963452)
- Condition notes: PEO1/OlaR viability, CellTiter-Glo luminescence, 96 h; stronger effect = lower value
Response field label takes yes (1) when Z-AUC is strictly below -0.3 and no (0) in all other cases.

# Compound, Category
rows = [
    ("C[C@@H]1COCCN1c1cc(-c2ccnn2C)c2ccnc(-c3ccn[nH]3)c2n1", "yes (1)"),
    ("Nc1cc(C(F)(F)F)c(-c2nc(N3CCOCC3)nc(N3CCOCC3)n2)cn1", "yes (1)"),
    ("C[C@@H](C(=O)Nc1ccc(Cl)cc1)C1CCC(c2ccnc3ccc(F)cc23)CC1 (some centres undefined)", "yes (1)"),
    ("CCOC(=O)CCNc1cc(N2CCc3ccccc3CC2)nc(-c2ccccn2)n1", "no (0)"),
    ("[O-][n+]1cccc(-c2nc3c(Cl)cccc3cc2[C@@H](Nc2ncnc3cccnc23)C(F)(F)F)c1", "yes (1)"),
    ("[2H]C([2H])([2H])C(O)([C@@H](C)/C=C/[C@@H](C)[C@H]1CC[C@H]2/C(=C/C=C3C[C@@H](O)C[C@H](O)C3)CCC[C@]12C)C([2H])([2H])[2H]", "no (0)"),
    ("CC1(C)OCCn2c1nc1c(N3CCOCC3)nc(-c3cnc(N)nc3)nc12", "yes (1)"),
    ("CCC[C@H](NC(=O)[C@@H]1[C@H]2CCC[C@H]2CN1C(=O)[C@@H](NC(=O)[C@@H](NC(=O)c1cnccn1)C1CCCCC1)C(C)(C)C)C(=O)C(=O)NC1CC1", "no (0)"),
    ("Nc1nc2cc(-c3ccc4ncc(C(=O)N5CCOCC5)n4c3)ccc2o1", "no (0)"),
    ("NC(=O)c1cc(F)cc2c1C(=O)N(C1CCN(C3CCC(F)(F)CC3)CC1)C2", "no (0)"),
    ("C=CC(=O)N[C@H]1CN(c2nc(Nc3cn(C)nc3OC)c3ncn(C)c3n2)C[C@@H]1F", "no (0)"),
    ("COc1ccc(Oc2cc(NCCC(F)(F)F)c3ncc(-c4ccc(C(=O)NC5CC5)c(C)c4)n3n2)c(F)c1F", "no (0)"),
    ("COc1cc(N2CCN(C)CC2)ccc1Nc1ncc2c(n1)N(C)c1ccccc1C(=O)N2", "yes (1)"),
    ("CCOC(=O)C1=CCCCC1S(=O)(=O)Nc1ccc(F)cc1Cl (centres undefined)", "no (0)"),
    ("CC/C(=C(/c1ccc(/C=C/C(=O)O)cc1)c1ccc2[nH]ncc2c1)c1ccc(F)cc1Cl", "no (0)"),
    ("Cc1ncc(NC(=O)c2cccc(C(F)(F)F)c2)cc1-c1cnc(OC2CCOCC2)c(N2CCOCC2)c1", "yes (1)"),
    ("CC[C@H](NC(=O)[C@H](C)NC)C(=O)N1C[C@@H](O)C[C@H]1Cc1c(-c2[nH]c3cc(F)ccc3c2C[C@@H]2C[C@H](O)CN2C(=O)[C@H](CC)NC(=O)[C@H](C)NC)[nH]c2cc(F)ccc12", "no (0)"),
    ("C[C@H]1C[C@@H](n2c(Nc3ccc(OC(F)(F)F)cc3)nc3cc(CCC(=O)O)ccc32)CC(C)(C)C1", "no (0)"),
    ("CC[C@H](Nc1ncnc2nc[nH]c12)c1oc2ccccc2c(=O)c1-c1cccc(F)c1", "no (0)"),
    ("CCN(C)S(=O)(=O)Nc1ccc(F)c(C(=O)c2c[nH]c3ncc(-c4cnc(C5CC5)nc4)cc23)c1F", "no (0)"),
    ("CC(C)(C)C[C@H]1N[C@@H](C(=O)NC2CCC(O)CC2)[C@H](c2cccc(Cl)c2F)[C@@]12C(=O)Nc1cc(Cl)ccc12 (some centres undefined)", "no (0)"),
    ("N#Cc1ccc(Cn2cncc2CN2CCN(c3cccc(Cl)c3)C(=O)C2)cc1", "yes (1)"),
    ("Nc1nc(Nc2ccc3c(c2)CC[C@@H](N2CCCC2)CC3)nn1-c1cc2c(nn1)-c1ccccc1CCC2", "no (0)"),
    ("CCCS(=O)(=O)c1nc(NC2CC2)cc(-c2ccc3c(ccn3C3CC(C)(C)NC(C)(C)C3)c2)n1", "yes (1)"),
]
